Items are presented alongside their recorded CC50 at 96 h.
# PROTOCOL_DESCRIPTION: Cytotoxicity in human Huh7.5 cells assessed as reduction in cell viability incubated for 96 hrs by MTT assay
# Assay type: cell-based
Give the value, in units of µM, as a plain number.

Example results:
CN1CCCN(c2ccc(C#N)c(CN3CCN(c4ccc(Cl)cc4)CC3)c2)CC1 :: 12.5
CN(C)CCN(C)c1ccc(C#N)c(CN2CCN(c3ccc(Cl)cc3F)CC2)c1 :: 13.2
CN(C)CCN(C)c1ccc(C#N)c(CN(C)c2ccc(Cl)cc2)c1 :: 15.5
Cc1ccc(N2CCN(Cc3cc(N(C)CCN(C)C)ccc3C#N)CC2)cc1 :: 36.2
CC1CN(Cc2cc(N(C)CCN(C)C)ccc2C#N)CCN1c1ccc(Cl)cc1 (stereo not given) :: 13.7
COc1ccc(NCc2cc(N3CCN(C)CC3)ccc2C#N)cc1 :: 48.2

[ask] I'd like to know its CC50 at 96 h. The compound in question is CN(C)CCN(C)c1ccc(C#N)c(CN2CCN(Cc3ccc(Cl)cc3)CC2)c1
[reply] 15.6

[ask] Same for COc1ccc(N2CCN(Cc3cc(N(C)CCN(C)C)ccc3C#N)CC2)cc1
[reply] 45.5

[ask] Same for CN(C)CCN(C)c1cccc(CN2CCN(c3ccc(Cl)cc3)CC2)c1
[reply] 13.6

[ask] Same for CN(C)CCN(C)c1ccc(C#N)c(CN2CCC(c3ccc(Cl)cc3)CC2)c1
[reply] 3.75

Source listed as ChEMBL document CHEMBL4613269.
